Tested on: LXRb:RXRa (NR concentration 270 nM, RXRa partner concentration 90 nM)
ASSAY_NOTES: PBM binding z-score (relative to random genomic background probes); higher = stronger binding; sequences stand for … in GC…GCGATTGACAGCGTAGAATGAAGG
Outcome label depends on PBM binding z-score relative to 2: at/above gives yes (1), below gives no (0).

SEQ_TEXT | QUALITATIVE_LABEL
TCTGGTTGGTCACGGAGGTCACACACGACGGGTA | yes (1)
TCTGCTAGGGCAGTTGGTCAGCTAACGAGCTGCC | no (0)
CAAACTAGGTCAAGGTCAACGTCGGTTTGTGCCA | yes (1)
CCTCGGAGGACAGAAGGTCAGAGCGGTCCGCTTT | no (0)
AGACTGAGGTTATTAAGATCAGGGAATTGCGGTC | no (0)
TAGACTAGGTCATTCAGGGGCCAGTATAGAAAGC | yes (1)
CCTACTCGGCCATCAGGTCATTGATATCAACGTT | yes (1)
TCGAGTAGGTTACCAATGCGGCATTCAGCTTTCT | no (0)
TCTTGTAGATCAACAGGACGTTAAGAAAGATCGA | no (0)
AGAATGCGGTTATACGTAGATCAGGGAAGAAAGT | no (0)
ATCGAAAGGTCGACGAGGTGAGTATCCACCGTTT | yes (1)
TCATATAGGTAACGGTGAAAGTCGAACGATATGA | no (0)

* * *

Tested on: LXRb:RXRa (NR concentration 270 nM, RXRa partner concentration 90 nM)
ASSAY_NOTES: PBM binding z-score (relative to random genomic background probes); higher = stronger binding; sequences stand for … in GC…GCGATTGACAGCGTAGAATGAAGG
Binning of PBM binding z-score into classes: zone 1 = under 0.7, zone 2 = from 0.7 up to 3, zone 3 = 3 and over

SEQ_TEXT | QUALITATIVE_LABEL
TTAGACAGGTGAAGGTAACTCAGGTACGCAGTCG | zone 2
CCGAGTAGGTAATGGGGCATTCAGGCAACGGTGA | zone 1
AGTCAAAGTTCATTAGGTAACGTAAGATTCAGCT | zone 3
TAGTCTAGGTCATTGGGCCAGTATAGTACGCATC | zone 2
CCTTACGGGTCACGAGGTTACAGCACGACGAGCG | zone 3
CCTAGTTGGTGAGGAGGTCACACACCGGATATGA | zone 3
TTACCAAGGTGAGCTGAGGTCGATGATCCAACTC | zone 1
AATACAGGGTCACTAGGCTAGAGTAGGTACGAAT | zone 3
ATATGTAGGTTATCGGGTAATTCAGTTTGCGCAT | zone 2
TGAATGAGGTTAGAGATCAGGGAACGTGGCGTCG | zone 1
GCTATTAGTTGAAAGGGCAACGGAATGATTCTCG | zone 2
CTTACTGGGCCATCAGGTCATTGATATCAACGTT | zone 2

* * *

Tested on: FXR:RXRa (NR concentration 270 nM, RXRa partner concentration 90 nM)
ASSAY_NOTES: PBM binding z-score (relative to random genomic background probes); higher = stronger binding; sequences stand for … in GC…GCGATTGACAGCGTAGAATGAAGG
Outcome label depends on PBM binding z-score relative to 2: at/above gives t, below gives f.

SEQ_TEXT | QUALITATIVE_LABEL
CGTCCAGGGTCAAGGTCAGTGAAAGAGACTCGAA | t
AGAATGAGGTTATACGTAGATTAGGGAAGAAAGT | t
ACAGACAGCTGATGAAGGTAACTCAGGCTATCAT | f
CATACAGGGTCAGCTAGGCCAGAATAGGGACGGC | t
CCTAGGAGGCCAGGGTCACTCAAGCATTTCGCTT | f
CATACAGGGTCAGCTAGGCCATAGTAGGGACGGC | t
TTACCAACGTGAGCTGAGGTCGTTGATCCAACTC | f
ACTACAGGGTCACTAGGCCAGAGTAGGTACGAAT | t
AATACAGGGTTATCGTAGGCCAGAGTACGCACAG | f
TCATATAGGTAAATGCGAGGTGAAAGTCCGATCT | f
CTCGAAAGGTCGGTTTAGGTGAGTATACGGATAA | t
TCAGGCAGGTGAAGGTAACTCAGGTACGCAGTCG | f
TCATATAGGTAAAACAGGTGAAAGTCGGCATCTA | f
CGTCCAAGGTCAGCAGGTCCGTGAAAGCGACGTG | t
CAAACTAGGTCACAGAGGTCAAAGGCCGTGCGTA | t
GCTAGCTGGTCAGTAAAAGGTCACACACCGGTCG | t
CTACCAAGGTGAACAAGGTCGTTGGTTACTATTC | f
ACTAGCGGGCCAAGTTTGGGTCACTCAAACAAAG | f
ATCTCAAGGTAAAGATAGTTCAGTGAATGCAAAT | f
TAACCTAGGTCAGATCGGGCCAGTATACGCTATA | t
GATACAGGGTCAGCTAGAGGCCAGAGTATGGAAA | t
CAAACTAGGTCACCGAGGTCAAAGTCCGTGCGTA | t
TCTTGTAGGTCAGCAGGTTAAGAAAGCTGGCCAA | t
ATCTCTAGGTAACAAGTTCAATGAAAGAGAGGAC | f
TCTTGTAGATCAATAGGAGGTTAAGAAAGATCGA | f
CTCGAAAGGTCGGTTGAGGTGAGTCTACGGATAA | t

// provenance: the supplement of paper PMC6555819
